Recorded values, source patent US8034941B2.

measurement-target: DPP-IV (Homo sapiens)
Construct: an extract of human colon carcinoma cell line Caco-2 is used as the DPP IV source; endogenous in cells; Nonidet-P40 solubilised extract
Sequence (P27487 whole entry): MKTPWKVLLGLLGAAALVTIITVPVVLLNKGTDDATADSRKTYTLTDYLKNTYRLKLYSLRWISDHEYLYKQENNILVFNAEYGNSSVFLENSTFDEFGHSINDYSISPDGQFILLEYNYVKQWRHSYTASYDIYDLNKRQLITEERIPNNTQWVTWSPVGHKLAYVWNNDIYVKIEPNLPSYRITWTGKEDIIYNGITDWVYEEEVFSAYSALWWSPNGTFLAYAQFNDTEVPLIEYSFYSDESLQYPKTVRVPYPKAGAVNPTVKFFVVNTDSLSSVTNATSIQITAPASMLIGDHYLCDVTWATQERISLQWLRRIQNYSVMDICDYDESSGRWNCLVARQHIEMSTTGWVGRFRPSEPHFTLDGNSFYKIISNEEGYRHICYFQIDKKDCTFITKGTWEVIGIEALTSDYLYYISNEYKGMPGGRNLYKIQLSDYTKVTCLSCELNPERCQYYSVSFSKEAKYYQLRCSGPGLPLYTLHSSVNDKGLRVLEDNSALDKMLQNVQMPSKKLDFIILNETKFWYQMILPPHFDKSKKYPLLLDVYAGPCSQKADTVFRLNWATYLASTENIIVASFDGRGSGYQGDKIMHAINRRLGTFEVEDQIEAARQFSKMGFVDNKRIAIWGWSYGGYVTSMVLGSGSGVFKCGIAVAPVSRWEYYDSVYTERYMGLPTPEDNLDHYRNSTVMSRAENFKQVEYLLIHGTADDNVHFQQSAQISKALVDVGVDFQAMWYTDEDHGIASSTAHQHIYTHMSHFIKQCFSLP
assay-remarks: DPP-IV assay with Caco-2 cell extract as DPP IV source, AFC substrate, fluorescence
measurement-context: extract of human colon carcinoma cell line Caco-2; substrate 100 μM; 60 minutes at ambient temperature; read-out: DPP IV inhibition IC50
pIC50: −log10 of the molar value.
measured-metric: pIC50

A = CC#CCn1c(N2CCC[C@@H](N)C2)nc2c(C)nn(CC3=Nc4ccccc4Oc4ccccc43)c(=O)c21
B = CC#CCn1c(N2CCCC(N)C2)nc2cnn(Cc3cc4ccccc4c4ccccc34)c(=O)c21 (stereo not drawn)
C = CC#CCn1c(N2CCCC(N)C2)nc2cnn(Cc3nc4ccccc4c4ccccc34)c(=O)c21 (stereo not drawn)
Input line: Ordering criterion: pIC50; begin with the maximum. Answer format: the labels, in the requested order.
Output line: A, C, B
(A: 8.05, C: 7.77, B: 7.24)
